Values were extracted from PubChem BioAssay AID1963829.

Test system: 935938-334-R-J1-PDC complex spheroid viability
measurement_protocol: Anticancer human tumor 935938-334-R-J1-PDC patient-derived small intestine adenocarcinoma cell line growth inhibition [POLQ]
settings: second compound 10 µM; first compound 1 µM; stronger effect = lower value
Reported viability, T/C values for the following compounds.
measurement_kind: viability, T/C (%)

* CCc1cc2c(N3CCc4c(cc(Cn5ccnc5)cc4-c4cn(C)nc4C(F)(F)F)C3=O)cc(C)nc2c(OC)n1 + Nc1ccc(C#CCN(C(=O)Cc2ncc(C(F)(F)F)cc2C(F)(F)F)c2ccc(F)cc2)nn1 | 72.8
* C=CCn1c(=O)c2cnc(Nc3ccc(N4CCN(C)CC4)cc3)nc2n1-c1cccc(C(C)(C)O)n1 + Cc1cccc(N(C)C(=O)C2C(O)CCN2c2nc(C)cc(C(F)(F)F)c2C#N)c1 | 19.6
* COc1cc2cc(C(=O)CCC(=O)O)sc2cc1OC + Nc1ccc(C#CCN(C(=O)Cc2ncc(C(F)(F)F)cc2C(F)(F)F)c2ccc(F)cc2)nn1 | 103
* COc1cccc2c1C(=O)c1c(O)c3c(c(O)c1C2=O)CC(O)(C(=O)CO)CC3OC1CC(N)C(O)C(C)O1 (stereo not given) + COC1C(OC(N)=O)C(O)C(Oc2ccc3c(O)c(NC(=O)c4ccc(O)c(CC=C(C)C)c4)c(=O)oc3c2C)OC1(C)C | 21.3
* O=c1[nH]cc(F)c(=O)[nH]1 + Cc1cccc(N(C)C(=O)C2C(O)CCN2c2nc(C)cc(C(F)(F)F)c2C#N)c1 | 95

* * *

Test system: 935938-334-R-J1-PDC complex spheroid viability
measurement_protocol: Anticancer human tumor 935938-334-R-J1-PDC cell line growth inhibition [POLQ];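 further: spheroids exposed to drugs for seven days before viability read; 100% = DMSO vehicle control wells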
settings: second compound 1 µM; first compound 0.1 µM; stronger effect = lower value
measurement_kind: viability, T/C (%)

• COc1cc2cc(C(=O)CCC(=O)O)sc2cc1OC + COC1C(OC(N)=O)C(O)C(Oc2ccc3c(O)c(NC(=O)c4ccc(O)c(CC=C(C)C)c4)c(=O)oc3c2C)OC1(C)C = 98.3
• CC1COCCN1c1cc(C2(O)CC3CCC(C2)O3)c2cnn(-c3ccn[nH]3)c2n1 (stereo not drawn) + COC1C(OC(N)=O)C(O)C(Oc2ccc3c(O)c(NC(=O)c4ccc(O)c(CC=C(C)C)c4)c(=O)oc3c2C)OC1(C)C = 78.6
• CCCS(=O)(=O)Nc1ccc(F)c(C(=O)c2c[nH]c3ncc(-c4ccc(Cl)cc4)cc23)c1F + COC1C(OC(N)=O)C(O)C(Oc2ccc3c(O)c(NC(=O)c4ccc(O)c(CC=C(C)C)c4)c(=O)oc3c2C)OC1(C)C = 117

* * *

System: 935938-334-R-J1-PDC complex spheroid viability
measurement_protocol: Anticancer human tumor 935938-334-R-J1-PDC cell line growth inhibition [POLQ];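 further: spheroids exposed to drugs for seven days before viability read; 100% = DMSO vehicle control wells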
settings: second compound 10 µM; first compound 1 µM; stronger effect = lower value
measurement_kind: viability, T/C (%)

* COc1cc2cc(C(=O)CCC(=O)O)sc2cc1OC + COC1C(OC(N)=O)C(O)C(Oc2ccc3c(O)c(NC(=O)c4ccc(O)c(CC=C(C)C)c4)c(=O)oc3c2C)OC1(C)C | 101
* CCc1cc2c(N3CCc4c(cc(Cn5ccnc5)cc4-c4cn(C)nc4C(F)(F)F)C3=O)ccnc2c(OC)n1 + COC1C(OC(N)=O)C(O)C(Oc2ccc3c(O)c(NC(=O)c4ccc(O)c(CC=C(C)C)c4)c(=O)oc3c2C)OC1(C)C | 73.6
* O=C(c1cc(Cc2n[nH]c(=O)c3ccccc23)ccc1F)N1CCN(C(=O)C2CC2)CC1 + Nc1ccc(C#CCN(C(=O)Cc2ncc(C(F)(F)F)cc2C(F)(F)F)c2ccc(F)cc2)nn1 | 98.2
* CC1COCCN1c1cc(C2(S(C)(=N)=O)CC2)nc(-c2ccnc3[nH]ccc23)n1 (stereo not given) + Cc1cccc(N(C)C(=O)C2C(O)CCN2c2nc(C)cc(C(F)(F)F)c2C#N)c1 | 68
* C#Cc1c(F)ccc2cc(O)cc(-c3ncc4c(N5CC6CCC(C5)N6)nc(OCC56CCCN5CC(F)C6)nc4c3F)c12 (stereo not given) + COC1C(OC(N)=O)C(O)C(Oc2ccc3c(O)c(NC(=O)c4ccc(O)c(CC=C(C)C)c4)c(=O)oc3c2C)OC1(C)C | 57.2
